# protocol text: growth of efflux-deficient E. coli DRC39 – strain DRC39, OD650, 24 h, E. coli filamentation inducers, primary screen (AID 1178);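 further: growth measured as culture turbidity by optical density at 650 nm; test concentration not given here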
# assay conditions: E. coli DRC39 acrAB, higher = more signal, called active from +8 up or from −8 down
measured metric: z-score
Please give the numeric answer without any surrounding text.

Please report the recorded z-score for CC(C)C(O)C1C=CC2C(=O)NC(=O)C2N1Nc1ccccn1 (centres undefined) .
-1.03

Please report the recorded z-score for CO[C@H]1O[C@H](CO)[C@@H](OC(=O)Nc2ccccc2)[C@H](OC(=O)Nc2ccccc2)[C@H]1OC(=O)Nc1ccccc1 .
1.48

Please report the recorded z-score for C=CCC(OC(C)=O)[C@@H]1[C@@H](N(Cc2ccc(-c3cccc(C(F)(F)F)c3)o2)C(=O)Cc2ccc(F)cc2)c2cc(OCCCO)ccc2N1C(=O)Cc1ccc2ccccc2c1 (some centres undefined) .
-0.241

Please report the recorded z-score for CC(C)C(CO)N1C(=O)[C@@H]2C3C(=O)OCCC/C=C\[C@H]3OC23C=CCN(Cc2ccccc2)C(=O)[C@@H]13 (some centres undefined) .
1.15

Please report the recorded z-score for C#CCN1[C@@H](Cc2ccccc2)C(=O)O[C@H](Cc2ccccc2)[C@@H]1/C=C/C1CC1 .
1.37

Please report the recorded z-score for [N-]=[N+]=Nc1ccccc1[C@H]1OC(c2ccc(OCCCO)cc2)=N[C@@]1(Cc1ccccc1)C(=O)NCC(O)CO (some centres undefined) .
0.413

Please report the recorded z-score for COC(=O)[C@@]1(Cc2ccc(F)cc2)[C@H]2c3cc(C(=O)N(C)C)n(C)c3C[C@H]2CN1C(=O)c1ccccc1 .
-0.657

Please report the recorded z-score for COc1ccccc1CN1C(=O)c2ccccc2[C@](Cc2ccccc2I)(C(=O)NCC(C)C)[C@@H]1c1ccc(CO)cc1 .
1.05

Please report the recorded z-score for CCCc1cc2c(n1CCc1ccc(Cl)cc1)C(C)C1CN(C(=O)c3ccccc3)C(C)(C(=O)OC)C21 (centres undefined) .
-1.34

Please report the recorded z-score for COC(=O)C(CC#Cc1ccc2c(c1)[C@]1(C(=O)N2)[C@H](C(=O)NC[C@H](O)c2ccccc2)[C@H]2C(=O)O[C@H](c3ccccc3)[C@H](c3ccccc3)N2[C@@H]1c1ccccc1OCCO)C(=O)OC .
0.0386

Please report the recorded z-score for CC(C)(C)OC(=O)CC[C@]1(C(=O)NCC(O)CO)N=C(c2ccc(OCCCO)cc2)O[C@H]1c1ccccc1N=[N+]=[N-] (some centres undefined) .
-0.0029

Please report the recorded z-score for CC(C)(C)N1CC=CC23O[C@@H]4/C=C\CCCOC(=O)C4[C@H]2C(=O)N(CCCO)[C@@H]3C1=O (some centres undefined) .
0.0362

Please report the recorded z-score for CN1C(=O)C2C(C1=O)C1C=C(c3ccc(CO)cc3)C2C(C2CC2)N1C (centres undefined) .
-0.453

Please report the recorded z-score for CN(C)CCCNC(=O)[C@@]1(Cc2ccccc2I)c2ccccc2C(=O)N(C2CCCCC2)[C@H]1c1ccc(CO)cc1 .
0.675

Please report the recorded z-score for CC1CC/C=C\[C@H]2OC34C=CCN(c5ccc6ccccc6c5)C(=O)[C@H]3N(C(C)CO)C(=O)[C@@H]4C2C(=O)O1 (some centres undefined) .
0.0825

Please report the recorded z-score for C=CCC(OC(C)=O)[C@@H]1[C@@H](N(Cc2ccc(-c3cccc(C(F)(F)F)c3)o2)C(=O)c2ccc(-c3ccccc3)cc2)c2cc(OCCCO)ccc2N1C(=O)c1ccc2ccccc2c1 (some centres undefined) .
0.391

Please report the recorded z-score for C=CCOC(=O)[C@H]1[C@@H]2C(=O)O[C@@H](c3ccccc3)[C@@H](c3ccccc3)N2[C@@H](c2ccc(OCCOC(=O)[C@@H]3C[C@@H]4C(=O)N[C@@H](CCCC[N+](C)(C)C)C(=O)N4[C@@H]3c3ccc(O)cc3)cc2)[C@]12C(=O)Nc1ccc(I)cc12 .
-1.46

Please report the recorded z-score for CCCCCCc1nc(-c2ccc(-c3ccc(Cl)c(Cl)c3)o2)cc2c1[Si](C(C)C)(C(C)C)OC2 .
0.522

Please report the recorded z-score for O=C1O[C@@H](c2ccccc2)[C@@H](c2ccccc2)N2[C@@H](c3ccc(OCCO)cc3)[C@]3(C(=O)Nc4ccc(C#CC5(O)CCCCCC5)cc43)[C@@H](C(=O)O)[C@H]12 .
0.876

Please report the recorded z-score for C=CCNC(=O)[C@H]1[C@@H]2C(=O)O[C@@H](c3ccccc3)[C@@H](c3ccccc3)N2[C@@H](c2ccc(OCCO)cc2)[C@]12C(=O)Nc1ccccc12 .
0.237

Please report the recorded z-score for O=C1N(CCS(=O)(=O)c2ccccc2)c2ccccc2C[C@]12N=C(c1ccc(OCCCO)cc1)O[C@@H]2c1ccccc1 .
0.39

Please report the recorded z-score for CCC(CC)C(O)C1C=CC2C(=O)N(c3ccccc3)C(=O)C2N1Nc1ccccc1F (centres undefined) .
-0.551

Please report the recorded z-score for O=C(NCCN1CCOCC1)[C@@H]1c2ccccc2C(=O)N(Cc2ccccc2C(F)(F)F)[C@H]1c1ccc(CO)cc1 .
0.394

Please report the recorded z-score for C=C(CCCC)/C(=C/C[C@@H](OC(C)=O)c1ccc(CO)o1)c1cnc2ccccc2c1 .
-1.1

* * *

# protocol text: plasmodial surface anion channel blockers, osmotic lysis – cell-based, P. falciparum Indochina, OD700, 18 h, primary screen (AID 1157)
# assay conditions: P. falciparum Indochina infected erythrocytes, osmotic lysis OD700, 18 h; higher = more signal, called active from +8 up or from −8 down
Assign Satisfied whenever z-score does not fall below 0.9; assign Not satisfied whenever it does.

Hello, I need to know if O=C1C2C=CC(C(O)c3c(F)cccc3Cl)N(Nc3ccc([N+](=O)[O-])cc3)C2C(=O)N1c1ccccc1 (stereo unspecified) has measured z-score not below 0.9. Thanks!
Satisfied

Hello, I need to know if COC(=O)[C@@]1(Cc2ccccc2)N=C(c2ccc(OCCCO)cc2)O[C@H]1c1ccccc1CN=[N+]=[N-] has measured z-score not below 0.9. Thanks!
Satisfied

Hello, I need to know if O=C(NCC(O)CO)C1N=C(c2ccc(OCCCO)cc2)N(c2ccccc2)O1 (stereo unspecified) has measured z-score not below 0.9. Thanks!
Not satisfied

Hello, I need to know if C=CCOC(=O)[C@@H]1[C@H]2C(=O)O[C@H](c3ccccc3)[C@H](c3ccccc3)N2[C@H](c2ccc(OCCOC(=O)[C@H]3C[C@H]4C(=O)N5CCC[C@H]5C(=O)N4[C@H]3c3cccc(OCCO)c3)cc2)[C@@]12C(=O)Nc1ccc(I)cc12 has measured z-score not below 0.9. Thanks!
Not satisfied

Hello, I need to know if COC(=O)[C@@]1(Cc2ccccc2)[C@H]2c3cc(C(=O)N4CCCC4)n(Cc4ccc(OC)c(OC)c4)c3C[C@H]2CN1C(=O)c1ccccc1 has measured z-score not below 0.9. Thanks!
Not satisfied

Hello, I need to know if CCCN1C(=O)[C@@]2(c3ccc([N+](=O)[O-])cc3)CC(=O)N(CC34CC5CC(CC(C5)C3)C4)[C@@H]2c2ccc(CO)cc21 has measured z-score not below 0.9. Thanks!
Not satisfied

* * *

# protocol text: plasmodial surface anion channel blockers, osmotic lysis – cell-based, P. falciparum Indochina, OD700, 2 h, primary screen (AID 1155);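 further: lysis reports solute entry through the parasite surface anion channel PSAC; channel blockers reduce lysis of infected cells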
# assay conditions: P. falciparum Indochina infected erythrocytes, called active from +8 up or from −8 down
Active and inactive are the calls of the source.
Log the outcome using a class from active, inactive

GET /call?item= CCCN1C(=O)[C@]2(CCC(=O)OC(C)(C)C)N=C(c3ccc(OCCCO)cc3)O[C@@H]2c2ccccc21 returns the recorded outcome of this test.
active

GET /call?item= COC(=O)[C@]1(CCC(=O)OC(C)(C)C)N=C(c2ccc(OCCCO)cc2)O[C@@H]1c1ccccc1N=[N+]=[N-] returns the recorded outcome of this test.
active

GET /call?item= COC(=O)[C@@]1(Cc2ccc(OC)cc2)[C@H]2c3cc(C(=O)N4CCCC4)n(Cc4c(CO)[nH]cc(C)c4=O)c3C[C@H]2CN1C(=O)c1ccccc1 returns the recorded outcome of this test.
inactive

GET /call?item= CCOC(=O)C[C@H]1[C@H](OC(=O)c2ccccc2-c2ccccc2)[C@@H](NC(=O)c2ccc3ccccc3c2)c2cc(OCCCO)ccc2N1C(=O)Cc1ccc(OC)cc1 returns the recorded outcome of this test.
inactive

GET /call?item= CN(C)CCCC[C@@H]1NC(=O)[C@H]2C[C@@H](C(=O)O)[C@@H](c3ccc(O)cc3)N2C1=O returns the recorded outcome of this test.
inactive

GET /call?item= COC(=O)[C@@]1(Cc2ccc(OC)cc2)[C@H]2c3cc(C(=O)N4CCCC4)n(Cc4ccc(C(F)(F)F)nc4)c3C[C@H]2CN1C(=O)c1ccccc1 returns the recorded outcome of this test.
inactive

GET /call?item= CC(C)N1C(=O)c2ccccc2[C@@H](C(=O)NCC(F)(F)F)[C@@H]1c1ccc(CO)cc1 returns the recorded outcome of this test.
inactive

GET /call?item= Cc1ccc(S[C@]2(C(=O)NC3CC3)CC(=O)N(C(C)C)[C@@H]2c2ccc(CO)cc2I)cc1 returns the recorded outcome of this test.
inactive

GET /call?item= Cc1ccc(S[C@]2(C(=O)NCc3ccccc3)CC(=O)N(Cc3ccccc3C(F)(F)F)[C@@H]2c2ccc(CO)cc2)cc1 returns the recorded outcome of this test.
inactive

GET /call?item= C=C(CCCC)/C(=C/C[C@@H](OC(C)=O)c1ccc(CO)o1)c1cnc2ccccc2c1 returns the recorded outcome of this test.
inactive

GET /call?item= COCCCN1C(=O)[C@@]2(c3ccc([N+](=O)[O-])cc3)CC(=O)N(CC34CC5CC(CC(C5)C3)C4)[C@@H]2c2ccc(CO)cc21 returns the recorded outcome of this test.
inactive

GET /call?item= O=C1O[C@H](Cc2ccccc2)[C@@H]2[C@H]3C=CCCC=C3CN2[C@H]1Cc1ccc(O)cc1 returns the recorded outcome of this test.
inactive

GET /call?item= Cc1ccc(F)cc1S(=O)(=O)N[C@H]1CCN(Cc2ccc(OC(C)C)cc2)C1 returns the recorded outcome of this test.
inactive

GET /call?item= COCCOC(=O)N1C(=O)[C@@]2(c3ccccc31)[C@H](C(=O)N1CCN(c3ncccn3)CC1)[C@H]1C(=O)O[C@H](c3ccccc3)[C@H](c3ccccc3)N1[C@@H]2c1ccccc1OCCO returns the recorded outcome of this test.
inactive

GET /call?item= C=C(COC)C(=O)CC[C@@H](OC(C)=O)c1ccccc1OCCO returns the recorded outcome of this test.
inactive

GET /call?item= CN(C)CCCNC(=O)[C@@H]1c2ccccc2C(=O)N(Cc2ccccc2C(F)(F)F)[C@H]1c1ccc(CO)cc1 returns the recorded outcome of this test.
inactive

GET /call?item= O=C1N(CCS(=O)(=O)c2ccccc2)c2ccccc2C[C@]12N=C(c1ccc(OCCCO)cc1)O[C@@H]2c1ccccc1 returns the recorded outcome of this test.
active

GET /call?item= COC(=O)[C@@]1(Cc2ccc(F)cc2)[C@H]2c3cc(C(=O)N4CCCC4)n(Cc4cc(F)cc5c4OCOC5)c3C[C@H]2CN1C(=O)c1ccccc1 returns the recorded outcome of this test.
inactive

GET /call?item= CCOC(=O)C[C@H]1[C@H](OC(=O)Cc2ccc3c(c2)OCO3)[C@@H](NC(=O)Cc2ccc(OC)cc2)c2cc(OCCCO)ccc2N1C(=O)Cc1ccc(OC)cc1 returns the recorded outcome of this test.
inactive

GET /call?item= CC(C)=CCCC(C)=CC(O)C1C=CC2C(=O)NC(=O)C2N1Nc1ccc(Cl)cc1Cl (stereo unspecified) returns the recorded outcome of this test.
inactive

GET /call?item= CC1CC/C=C\[C@H]2OC34C=CCN(Cc5ccccc5)C(=O)[C@H]3N(CCCCCCO)C(=O)[C@@H]4C2C(=O)O1 (stereo partly specified) returns the recorded outcome of this test.
inactive

The reported numbers originate from PubChem BioAssay.
